# conditionContext: 298.15 K; 101.33 kPa; Liquid; Vibrating tube method
assayReadout: mass density (kg/m3)
Output spec: scalar in kg/m3, unitless text.

Query :: Given Cc1ccc(C)cc1 [1,4-dimethylbenzene] , state its recorded mass density.
Result :: 856.68

Query :: Also check Cc1cccc(C)c1 [1,3-dimethylbenzene]
Result :: 859.88

Query :: Also Cc1ccccc1C [1,2-dimethylbenzene] , if possible.
Result :: 875.57

Query :: Try this compound too: CC(=O)O [acetic acid]
Result :: 1043.58

Query :: What do we get for ClC=C(Cl)Cl [trichloroethene] ?
Result :: 1455.53

* * *

Give refractive index for every item shown.
# assay: refractive index (Na D-line) (dimensionless)
# conditionContext: 298.15 K; 101.33 kPa; Liquid; Standard Abbe refractometry
Keep the answer to the number alone.

Query :: Sample "ClC=C(Cl)Cl" — what was its refractive index?
Result :: 1.475

Query :: Repeat with "CC(=O)O"
Result :: 1.3698

Query :: Likewise for "Cc1cccc(C)c1" ?
Result :: 1.4944

Query :: Now try "Cc1ccccc1C" .
Result :: 1.5024

Query :: Repeat for the following compound: "Cc1ccc(C)cc1"
Result :: 1.4929

Value source: the NIST ThermoML archive (doi:10.1021/je201211f)
